tested on: SN12C renal; test: NCI tumour cell line growth inhibition, 48 h
Item-by-item account of TGI

For COc1cc(Br)c(CC2=NCCc3cc(OC)c(OC)cc32)cc1OC the molecule record lists TGI as > 100 µM

According to the records, this molecule O=C(NC(Nc1ccc(F)c(Cl)c1)(C(F)(F)F)C(F)(F)F)C(C(F)(F)F)C(F)(F)F displays TGI of > 100 µM

So for O=C(/C=C\c1ccnc2ccccc12)c1ccc([N+](=O)[O-])cc1 , the logged TGI turned out to be > 64.2 µM

Entry O=C1C2=C(c3ccccc31)C(c1ccccc1Cl)N1C(=O)CSC1=N2 (stereo not given) — recorded TGI = > 100 µM

// TGI value for CCCc1c2c3ccccc3nc-2nc2ccccn12 : > 100 µM

Numbers sourced from PubChem BioAssay (NCI).
